Target: T1, 6xHis-tagged HACS1 SH3 domain (human, UniProt Q9NSI8 163-224)
T1 construct: human HACS1 SH3 domain, codon-optimized synthetic gene; Gene synthesized, in a pD441NH expression vector (ATUM); 15N-labelled in the NMR experiments; Minimal folded SH3 domain is 168-222 by the NMR structure; also called HACS SH3 domain; 6xHis-tagged SH3 domain; source: E. coli, purified (Nickel-NTA, gel filtration)
T1 sequence (Q9NSI8 163-224): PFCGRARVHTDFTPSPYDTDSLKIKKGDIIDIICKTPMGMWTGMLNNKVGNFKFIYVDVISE
Assay: ITC; 600 µM PIRB-GB1 in the syringe, 37 µM 6xHis-tagged HACS1 SH3 domain in the cell; 10 mM Tris, 50 mM NaCl, 1 mM TCEP, 0.05 NaN3, pH 7.5; single-site binding model
Conditions: both partners purified
Endpoint: pKd
Reminder that pKd is minus the log10 of a molar concentration.

Input: Please give the measured pKd for this binder: LCSRTLRQGAAAS (peptide, UniProt P97484 797-809, looked up, 797-809; Methods: PIRB fragment and GB1 separated by a random 13 amino acid linker; Not phosphorylated; also called PIRB-GB1 hybrid protein; Protein GB1-tagged PIRB; source: E. coli, purified (Nickel-NTA, gel filtration); not shown: Protein G B1 domain (GB1), C-terminal, kept) [murine PIRB-GB1 fusion protein]
Output: 4.80
